- Measured target: DnaK (wild type) (Escherichia coli, UniProt P0A6Y8)
- Sequence (P0A6Y8 whole entry): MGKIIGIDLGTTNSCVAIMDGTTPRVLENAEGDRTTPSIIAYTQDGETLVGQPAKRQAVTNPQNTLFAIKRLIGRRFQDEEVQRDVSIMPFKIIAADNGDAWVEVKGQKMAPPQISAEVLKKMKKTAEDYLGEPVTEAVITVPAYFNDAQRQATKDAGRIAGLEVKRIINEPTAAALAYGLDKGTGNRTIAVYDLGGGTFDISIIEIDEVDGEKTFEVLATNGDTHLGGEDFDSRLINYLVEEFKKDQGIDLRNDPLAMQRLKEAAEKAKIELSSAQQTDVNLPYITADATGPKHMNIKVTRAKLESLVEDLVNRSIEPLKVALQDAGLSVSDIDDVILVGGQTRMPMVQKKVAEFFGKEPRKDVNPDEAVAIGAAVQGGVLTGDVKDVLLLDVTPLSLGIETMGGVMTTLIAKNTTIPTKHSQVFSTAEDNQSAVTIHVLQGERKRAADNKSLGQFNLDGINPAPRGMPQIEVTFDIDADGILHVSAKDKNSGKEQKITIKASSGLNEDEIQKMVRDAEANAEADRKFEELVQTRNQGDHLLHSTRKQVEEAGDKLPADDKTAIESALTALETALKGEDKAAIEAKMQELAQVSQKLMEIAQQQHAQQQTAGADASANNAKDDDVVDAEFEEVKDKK
Assay readout: pKd
One number for each entry, as −log10 of the molar value.

### Prompt Which measured pKd value corresponds to O=c1c(O)c(-c2cc(O)c(O)c(O)c2)oc2cc(O)cc(O)c12 ?
### Response 4.26

* * *

- Measured target: DnaK-DnaJ complex (Escherichia coli, UniProt P0A6Y8)
- Sequence (P0A6Y8 whole entry, one chain of several): as the sequence (P0A6Y8 whole entry) above
- Procedure summary: ATPase assay of the DnaK-DnaJ system
- Type: biochemical
- Assay context: read-out: IC50 against the DnaK-DnaJ system; DnaK 0.6 μM, DnaJ 1 μM
Assay readout: pIC50
Answers are plain numbers, as −log10 of the molar value.

### Prompt Give pIC50 (DnaK-DnaJ complex (Escherichia coli, UniProt P0A6Y8)) of the following compound: O=c1cc(-c2cc(O)c(O)c(O)c2)oc2cc(O)cc(O)c12 [hieracin]
### Response 4.55
